System: IL-1β, IL-6, IFN-γ, TNF-α, IL-8, MIP-1α, MCP-1, MIP-1β, RANTES
METHOD NOTES: Cytokine and chemokine assays in cynomolgus monkeys (Example 46)
Assay type: in vivo
DETAILS: day-14 (before start of treatment)
Method: Groups, each consisting of two male and two female monkeys, were injected subcutaneously with 25 mg/kg of ISIS 416850, ISIS 449709, ISIS 445522, ISIS 449710, ISIS 449707, ISIS 449711, ISIS 449708, 416858, and ISIS 445531. […] Body weights were taken 14 days and 7 days before the start of treatment and were then measured weekly throughout the treatment period. […]
Strand notation (5' to 3'): a small letter for the sugar, then the base; units joined by * are phosphorothioate-linked, units joined directly phosphodiester-linked; [ ] holds rarer units or linkages, { } end groups; capitals alone tell only the bases. e = 2'-O-(2-methoxyethyl) (MOE); [5mC] = 5-methylcytosine; d = 2'-deoxy (DNA)
RECORDED ENDPOINT: IFN-γ level (pg/mL)
Write down the numeric answer in pg/mL and omit the unit.

ISIS 416858: MOE gapmer, nucleobases 1275 to 1318 of SEQ ID NO: 1 (Table 8) (antisense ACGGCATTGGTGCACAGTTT; MOE gapmer, wing and gap sizes not given here)	32
ISIS 449709: 3-8-3, 4-8-4, 2-10-2, 3-10-3 or 4-10-4 MOE microwalk gapmer (Table 46) (antisense eG*e[5mC]*eA*e[5mC]*dA*dG*dT*dT*dT*d[5mC]*dT*dG*dG*d[5mC]*eA*eG*eG*e[5mC])	37
ISIS 449707: 3-8-3, 4-8-4, 2-10-2, 3-10-3 or 4-10-4 MOE microwalk gapmer (Table 46) (antisense e[5mC]*eA*e[5mC]*eA*dG*dT*dT*dT*d[5mC]*dT*dG*dG*e[5mC]*eA*eG*eG)	34

Let's switch to this substance now.
Query IFN-γ level on IL-1β, IL-6, IFN-γ, TNF-α, IL-8, MIP-1α, MCP-1, MIP-1β, RANTES for ISIS 445531: 5-8-5 or 6-8-6 MOE microwalk gapmer (Table 44) (antisense eG*eG*e[5mC]*eA*eT*dT*dG*dG*dT*dG*d[5mC]*dA*d[5mC]*eA*eG*eT*eT*eT)
68
